experiment: Diffusion-reaction model fitted to the uptake data (membrane permeability and esterase kinetics); assay type: in vitro ADME, rat; details: female, Lewis, rat, not told, pH 7.1; C* 30 mM, fit up to 9 h; read-out: P, membrane permeability
property: Papp at 9 h, 30 mM (×10⁻⁶ cm/s)
Please give a number only; it is taken to be in ×10⁻⁶ cm/s.

Data request: Requested read-out: Papp at 9 h, 30 mM. Entry: CC(=O)OC1C(CO)OC(OC2OC(CO)C(OC(C)=O)C(OC(C)=O)C2OC(C)=O)C(OC(C)=O)C1OC(C)=O (stereo not shown) [6-O-Ac-Tre, trehalose hexaacetate]
Data returned: 0.8

====

assay: Diffusion-reaction model fitted to the uptake data (membrane permeability and esterase kinetics); type: in vitro ADME, rat; details: female, Lewis, rat, not told, pH 7.1; C* 5 mM, fit up to 9 h; read-out: P, membrane permeability
property: Papp at 9 h, 5 mM (×10⁻⁶ cm/s)
Please give a number only; it is taken to be in ×10⁻⁶ cm/s.

Data request: Requested read-out: Papp at 9 h, 5 mM. Entry: CC(=O)OC1C(CO)OC(OC2OC(CO)C(OC(C)=O)C(OC(C)=O)C2OC(C)=O)C(OC(C)=O)C1OC(C)=O (stereo not shown) [6-O-Ac-Tre, trehalose hexaacetate]
Data returned: 0.22

====

assay: Diffusion-reaction model fitted to the uptake data (membrane permeability and esterase kinetics); format: in vitro ADME, rat; details: female, Lewis, rat, not told, pH 7.1; Average±S.D. over 5, 15, 30 mM; read-out: P, membrane permeability
property: Papp at 9 h

Data request: Requested read-out: Papp at 9 h. Entry: CC(=O)OC1C(CO)OC(OC2OC(CO)C(OC(C)=O)C(OC(C)=O)C2OC(C)=O)C(OC(C)=O)C1OC(C)=O (stereo not shown) [6-O-Ac-Tre, trehalose hexaacetate]
Data returned: 0.5 ×10⁻⁶ cm/s
